targetUnderTest: GST-CIB1 : F-scrambled peptide (Homo sapiens, UniProt Q99828)
Construct: made in house; host or cells: BL-21 plus RIL cells (E. coli)
Sequence (Q99828 whole entry): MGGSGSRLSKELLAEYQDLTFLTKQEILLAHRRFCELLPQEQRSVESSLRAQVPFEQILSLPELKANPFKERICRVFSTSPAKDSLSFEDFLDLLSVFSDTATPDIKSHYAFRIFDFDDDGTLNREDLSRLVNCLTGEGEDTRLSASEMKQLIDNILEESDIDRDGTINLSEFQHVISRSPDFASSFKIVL
experimentalDetails: FP scrambled-peptide counter screen, 384-well format
Type: binding
conditionDescription: F-scrambled peptide
Please note: t applies when 384-well COUNTERSCREEN Efficacy (%) is 80% or greater, and f applies otherwise.

{"columns": ["compound", "class"],
 "data": [
  ["O=C(Cc1ccc(Cl)c(Cl)c1)Nc1ccc(S(=O)(=O)Nc2ccon2)cc1.O=C(O)C(F)(F)F [NCGC00244858-03]", "f"],
  ["O=C(O)C(F)(F)F.O=c1c2ccccc2nc2sc(NS(=O)(=O)c3ccc4c(c3)CCC4)nn12 [NCGC00187579-01]", "f"],
  ["Cc1cc(SCc2sc(-c3ccc(Cl)c(Cl)c3)nc2C)ccc1OCc1nnn[nH]1.O=C(O)C(F)(F)F [NCGC00344871-01]", "t"],
  ["Cc1ccc(S(=O)(=O)Nc2cnccc2C(=O)Nc2nc(-c3cccc(Cl)c3)cs2)cc1.O=C(O)C(F)(F)F [NCGC00318956-01]", "t"],
  ["CC(C)(C)c1ccc(SC2=NS(=O)(=O)c3ccccc32)cc1 [NCGC00189495-01]", "f"]
]}

Incoming: I'd appreciate it if you could say whether CCOC(=O)c1ccc(O)c2ncc(-c3ccc(C(=N)N)cc3)cc12.O=C(O)C(F)(F)F [NCGC00241050-01] has 384-well COUNTERSCREEN Efficacy (%) at least equal to 80%.
Outgoing: f

Incoming: hey, is 384-well COUNTERSCREEN Efficacy (%) for this one >= 80%? CCCCCc1c2c(cc(O)c1C(=O)O)OC(=O)c1c(cc(OC)cc1C(=O)CCCC)O2.O=C(O)C(F)(F)F [NCGC00095570-05]
Outgoing: f

* * *

targetUnderTest: CIB1 and αIIb interaction (CIB1-GST : F-αIIb peptide) (Homo sapiens)
Construct: made in house; host or cells: BL-21 plus RIL cells (E. coli)
Sequence (Q99828 whole entry): as above
experimentalDetails: FP assay, 1536-well qHTS format (primary and confirmatory screen)
Type: binding
conditionDescription: qHTS primary screen hits, Table S2; negative = inhibition
Below, each entry is listed alongside its reported Efficacy (%).
Express the result in % but write the number alone.

Examples with their reported Efficacy (%) follow.
{"columns": ["compound", "targetUnderTest", "endpointUnit", "Efficacy (%)"],
 "data": [
  ["Cl.O=S(=O)(Nc1nccs1)c1ccc(NCc2cc(Cl)cc(Br)c2O)cc1 [NCGC00273965-01]", "CIB1 and αIIb interaction (CIB1-GST : F-αIIb peptide) (Homo sapiens)", "%", -33],
  ["CN(C)c1cccc(-c2cnc(N3CCC(c4ncc[nH]4)CC3)s2)c1.O=C(O)C(F)(F)F [NCGC00187899-01]", "CIB1 and αIIb interaction (CIB1-GST : F-αIIb peptide) (Homo sapiens)", "%", -34],
  ["O=C(O)C(F)(F)F.Oc1cccc2c(-c3nnn[nH]3)ccnc12 [NCGC00183786-01]", "CIB1 and αIIb interaction (CIB1-GST : F-αIIb peptide) (Homo sapiens)", "%", -27],
  ["O=C(Cc1ccc(Cl)c(Cl)c1)Nc1ccc(S(=O)(=O)Nc2nnc(-c3ccccn3)s2)cc1.O=C(O)C(F)(F)F [NCGC00248355-01]", "CIB1 and αIIb interaction (CIB1-GST : F-αIIb peptide) (Homo sapiens)", "%", -50],
  ["C[C@](N)(Cc1ccc(O)c(O)c1)C(=O)O [NCGC00024667-14]", "CIB1 and αIIb interaction (CIB1-GST : F-αIIb peptide) (Homo sapiens)", "%", -24],
  ["Cl.NC(CO)(CO)CCc1ccc(Sc2cccc(OCc3ccccc3)c2)cc1Cl [NCGC00250388-02]", "CIB1 and αIIb interaction (CIB1-GST : F-αIIb peptide) (Homo sapiens)", "%", -71]
]}

Incoming: Field request: Efficacy (%) | item: Cc1ccc(-c2cc(-c3nn(-c4nc(C(=O)O)cs4)c(CC4CC4)c3Cc3ccc(S(N)(=O)=O)c(F)c3)ccc2F)s1.Cl [NCGC00388587-02]
Outgoing: -23
